Task for the reader: assign each of the following molecules its reported Ki ratio.
target entity: Serotonin 1a (5-HT1a) receptor/Adrenergic receptor alpha-1 (Rattus norvegicus) (UniProt P15823+P23944+P43140+P19327)
test name: Ki ratio measured as the Ki values of alpha-1 adrenergic receptor to that of 5-hydroxytryptamine 1A receptor
Assay type: protein assay

For orientation, consider the following solved cases.
c1ccc2c(c1)CC(N1CCN(c3cccc4c3OCCO4)CC1)C2 ... 81
c1ccc2c(c1)CC(N1CCN(c3cccc4c3OCCCO4)CC1)C2 ... 55
c1ccc2c(c1)CC2CCN1CCN(c2cccc3c2OCCO3)CC1 (stereo not drawn) ... 35.4
c1ccc2c(c1)CCC2CN1CCN(c2cccc3c2OCCO3)CC1 (stereo not drawn) ... 18.6
COc1cc2c(cc1OC)C(CCN1CCN(c3cccc4c3OCCO4)CC1)CC2 (stereo not drawn) ... 9.8

// for each molecule below, give its Ki ratio
1. Clc1cccc2c1CC2CCN1CCN(c2cccc3c2OCCO3)CC1 (stereo not drawn)
2. COc1ccccc1N1CCN(C[C@@H](C(=O)NC(C)(C)C)c2ccccc2)CC1
3. c1ccc2c(c1)CC2CCCCN1CCN(c2cccc3c2OCCO3)CC1 (stereo not drawn)

1. 28.8
2. 35.6
3. 17.8

* * *

target entity: D(2) dopamine receptor (Rattus norvegicus)
Sequence (P61169 whole entry): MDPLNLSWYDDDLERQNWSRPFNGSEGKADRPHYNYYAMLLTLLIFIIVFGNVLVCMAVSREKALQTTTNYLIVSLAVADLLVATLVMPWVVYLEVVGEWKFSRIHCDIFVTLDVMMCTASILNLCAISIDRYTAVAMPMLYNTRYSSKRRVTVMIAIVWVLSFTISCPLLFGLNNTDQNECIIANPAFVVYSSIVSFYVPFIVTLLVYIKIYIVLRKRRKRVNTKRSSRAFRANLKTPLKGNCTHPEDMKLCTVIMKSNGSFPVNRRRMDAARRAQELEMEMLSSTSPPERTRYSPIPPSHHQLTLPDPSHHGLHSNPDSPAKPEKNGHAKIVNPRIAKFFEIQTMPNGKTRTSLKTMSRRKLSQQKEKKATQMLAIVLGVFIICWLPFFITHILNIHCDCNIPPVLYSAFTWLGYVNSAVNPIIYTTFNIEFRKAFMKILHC
test name: In vitro binding affinity towards Dopamine receptor D2 in rat striatum was determined using [3H]-spiperone as radioligand
Assay type: tissue-based
Exercise: state measured Ki for each of the molecules provided.
Answers are plain numbers, in µM.

Below, each entry is followed by its recorded Ki result.
COc1ccccc1N1CCN(CCN2C(=O)CC3(CCCC3)CC2=O)CC1 ... 0.0174
COc1ccccc1N1CCN(C[C@@H](C(=O)NC(C)(C)C)c2ccccc2)CC1 ... 0.389
c1ccc2c(c1)CCC2CN1CCN(c2cccc3c2OCCO3)CC1 (stereo not given) ... 0.0417

For every listed record, write down its Ki.
1. c1ccc2c(c1)CC(N1CCN(c3cccc4c3OCCO4)CC1)C2
2. c1ccc2c(c1)CC2CCN1CCN(c2cccc3c2OCCO3)CC1 (stereo not given)

1: 0.347; 2: 0.049

* * *

target entity: 5-hydroxytryptamine receptor 1B (Rattus norvegicus)
Sequence (P28564 whole entry): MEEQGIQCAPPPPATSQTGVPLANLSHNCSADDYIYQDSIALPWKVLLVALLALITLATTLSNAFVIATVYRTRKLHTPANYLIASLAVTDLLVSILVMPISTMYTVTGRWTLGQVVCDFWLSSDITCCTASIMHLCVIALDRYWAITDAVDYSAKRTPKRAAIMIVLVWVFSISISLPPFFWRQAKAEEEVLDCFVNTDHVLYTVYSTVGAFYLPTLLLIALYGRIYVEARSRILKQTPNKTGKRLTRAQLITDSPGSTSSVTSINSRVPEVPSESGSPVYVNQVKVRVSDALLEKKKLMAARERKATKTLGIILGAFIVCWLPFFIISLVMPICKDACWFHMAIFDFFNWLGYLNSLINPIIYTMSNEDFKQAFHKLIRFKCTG
measured parameter: pKi
Give bare numbers, as −log10 of the molar value.

c1ccc2c(c1)CC2CCN1CCN(c2cccc3ccoc23)CC1 (stereo not drawn) ... 5.82
c1ccc2c(c1)CC(CN1CCN(c3cccc4c3OCCO4)CC1)C2 ... 6.31
c1ccc2c(c1)CCC2CCCN1CCN(c2cccc3c2OCCO3)CC1 (stereo not drawn) ... 6.69
c1ccc2c(c1)CC2CCN1CCN(c2cccc3c2OCCCO3)CC1 (stereo not drawn) ... 6.25
c1ccc2c(c1)CC2CCCCN1CCN(c2cccc3c2OCCO3)CC1 (stereo not drawn) ... 6.20

Required: pKi, one value per compound below.
1. c1ccc2c(c1)CC(N1CCN(c3cccc4c3OCCO4)CC1)C2
2. Clc1cccc2c1CC2CCN1CCN(c2cccc3c2OCCO3)CC1 (stereo not drawn)

1. 5.75
2. 6.15

* * *

target entity: Adrenergic receptor alpha-1 (Rattus norvegicus, UniProt P15823+P23944+P43140)
Sequence (P15823 whole entry): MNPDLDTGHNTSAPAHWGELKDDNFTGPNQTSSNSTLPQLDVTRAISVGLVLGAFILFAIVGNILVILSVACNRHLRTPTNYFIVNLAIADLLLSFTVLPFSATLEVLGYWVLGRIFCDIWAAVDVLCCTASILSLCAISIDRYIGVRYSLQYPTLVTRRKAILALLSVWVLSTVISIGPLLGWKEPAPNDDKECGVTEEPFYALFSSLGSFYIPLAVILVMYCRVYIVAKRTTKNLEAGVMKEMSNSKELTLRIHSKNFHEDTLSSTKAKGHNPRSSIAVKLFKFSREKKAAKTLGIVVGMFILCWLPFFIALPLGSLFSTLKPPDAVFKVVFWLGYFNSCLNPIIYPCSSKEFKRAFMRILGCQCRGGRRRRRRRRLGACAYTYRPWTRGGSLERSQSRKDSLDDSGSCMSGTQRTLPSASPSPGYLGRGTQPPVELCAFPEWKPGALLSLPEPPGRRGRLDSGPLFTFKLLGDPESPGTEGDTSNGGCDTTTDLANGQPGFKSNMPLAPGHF
Sequence (P23944 whole entry): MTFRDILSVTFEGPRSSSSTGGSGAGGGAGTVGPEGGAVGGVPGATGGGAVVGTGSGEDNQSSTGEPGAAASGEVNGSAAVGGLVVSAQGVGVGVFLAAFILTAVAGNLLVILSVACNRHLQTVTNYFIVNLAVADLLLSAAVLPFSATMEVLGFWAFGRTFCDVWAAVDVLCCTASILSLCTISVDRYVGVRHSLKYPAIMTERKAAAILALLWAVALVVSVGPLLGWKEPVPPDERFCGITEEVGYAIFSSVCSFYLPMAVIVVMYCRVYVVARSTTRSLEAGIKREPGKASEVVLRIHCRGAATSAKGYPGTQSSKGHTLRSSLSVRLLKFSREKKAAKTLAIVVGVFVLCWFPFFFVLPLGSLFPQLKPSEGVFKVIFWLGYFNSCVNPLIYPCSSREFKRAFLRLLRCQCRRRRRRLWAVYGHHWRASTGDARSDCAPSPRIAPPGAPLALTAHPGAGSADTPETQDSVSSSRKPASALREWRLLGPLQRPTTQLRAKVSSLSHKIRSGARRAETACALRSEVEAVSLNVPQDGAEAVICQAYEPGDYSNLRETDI
Sequence (P43140 whole entry): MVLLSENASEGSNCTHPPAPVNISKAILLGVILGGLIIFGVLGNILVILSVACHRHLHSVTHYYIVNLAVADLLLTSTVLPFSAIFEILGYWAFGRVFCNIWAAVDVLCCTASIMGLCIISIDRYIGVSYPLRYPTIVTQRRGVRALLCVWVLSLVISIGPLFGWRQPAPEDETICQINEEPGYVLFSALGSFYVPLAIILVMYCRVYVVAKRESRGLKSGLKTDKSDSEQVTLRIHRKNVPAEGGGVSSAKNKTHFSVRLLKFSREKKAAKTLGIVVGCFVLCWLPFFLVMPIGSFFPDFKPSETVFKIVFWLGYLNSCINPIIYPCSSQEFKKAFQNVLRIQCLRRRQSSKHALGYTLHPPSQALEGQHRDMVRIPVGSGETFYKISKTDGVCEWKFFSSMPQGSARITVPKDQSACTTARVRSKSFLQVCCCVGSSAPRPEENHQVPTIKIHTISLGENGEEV
test name: In vitro binding affinity towards Alpha-1 adrenergic receptor in rat cortex was determined using [3H]prazosin as radioligand
Rule: measured Log Ki below -7 gets 1.0; anything equal to or greater than -7 gets 0.0.

Previously resolved entries follow.
c1ccc2c(c1)CC2CCCCN1CCN(c2cccc3c2OCCO3)CC1 (stereo not drawn) ... 1.0
COc1cc2c(cc1OC)C(CCN1CCN(c3cccc4c3OCCO4)CC1)CC2 (stereo not drawn) ... 1.0
COc1ccccc1N1CCN(C[C@@H](C(=O)NC(C)(C)C)c2ccccc2)CC1 ... 0.0
c1ccc2c(c1)CC2CCN1CCN(c2cccc3c2OCCO3)CC1 (stereo not drawn) ... 1.0
c1ccc2c(c1)CCC2CN1CCN(c2cccc3c2OCCO3)CC1 (stereo not drawn) ... 1.0

As a next step, examine the molecule that follows.
Strictly below -7: is that where Log Ki of c1ccc2c(c1)CC(N1CCN(c3cccc4c3OCCCO4)CC1)C2 sits?
0.0

* * *

Listed here: compounds with reported pKi for 5-hydroxytryptamine receptor 1A (Rattus norvegicus, UniProt P19327).
One number for each entry, as −log10 of the molar value.

// solved cases for pKi follow
COc1ccc2c(c1)C(CCN1CCN(c3cccc4c3OCCO4)CC1)C2 (stereo not given) ... 8.90
c1ccc2c(c1)CC(CCCN1CCN(c3cccc4c3OCCO4)CC1)C2 ... 8.90
C1=C(CCN2CCN(c3cccc4c3OCCO4)CC2)Cc2ccccc21 ... 9.27

Count: 7. Required value per item: pKi.
1. c1ccc2c(c1)CC2CN1CCN(c2cccc3ccoc23)CC1 (stereo not given)
2. c1ccc2c(c1)CC2CCN1CCN(c2cccc3ccoc23)CC1 (stereo not given)
3. c1ccc2c(c1)CC2CCCN1CCN(c2cccc3c2OCCO3)CC1 (stereo not given)
4. c1ccc2c(c1)CC2CCN1CCN(c2cccc3c2OCCCO3)CC1 (stereo not given)
5. Fc1cccc2c1CC2CN1CCN(c2cccc3c2OCCO3)CC1 (stereo not given)
6. c1ccc2c(c1)CC2CCCN1CCN(c2cccc3ccoc23)CC1 (stereo not given)
7. Clc1cccc2c1CC2CN1CCN(c2cccc3c2OCCO3)CC1 (stereo not given)

1: 8.10; 2: 8.85; 3: 9.35; 4: 8.94; 5: 8.75; 6: 8.55; 7: 8.40

Below is a list of compounds. For each, state its recorded pKi.
1. COc1cc2c(cc1OC)C(CCN1CCN(c3cccc4c3OCCO4)CC1)CC2 (stereo not given)
2. c1ccc2c(c1)CC2CCCCN1CCN(c2cccc3c2OCCO3)CC1 (stereo not given)
3. c1ccc2c(c1)CCCC2CCN1CCN(c2cccc3c2OCCO3)CC1 (stereo not given)

[8.80, 8.89, 8.56]

Hi there! I need pKi for each item below, if you can.
1. c1ccc2c(c1)CC2CN1CCN(c2cccc3c2OCCCO3)CC1 (stereo not given)
2. C1=C(CCN2CCN(c3cccc4c3OCCO4)CC2)c2ccccc2CC1
3. c1ccc2c(c1)CC(CN1CCN(c3cccc4c3OCCO4)CC1)C2
4. c1ccc2c(c1)CCC2CN1CCN(c2cccc3c2OCCO3)CC1 (stereo not given)
5. c1ccc2c(c1)CC2CCCN1CCN(c2cccc3c2OCCCO3)CC1 (stereo not given)
6. Clc1cccc2c1CC2CCN1CCN(c2cccc3c2OCCO3)CC1 (stereo not given)

1. 8.10
2. 8.70
3. 8.55
4. 8.76
5. 9.10
6. 8.65

Below are some compounds; for each one, tell me its pKi.
1. c1ccc2c(c1)CCCCC2CCN1CCN(c2cccc3c2OCCO3)CC1 (stereo not given)
2. c1ccc2c(c1)CCC2CCN1CCN(c2cccc3c2OCCO3)CC1 (stereo not given)
3. c1ccc2c(c1)CC2CCN1CCN(c2cccc3c2OCCO3)CC1 (stereo not given)
4. c1ccc2c(c1)CCC2CCCN1CCN(c2cccc3c2OCCO3)CC1 (stereo not given)
5. c1ccc2c(c1)CC2CN1CCN(c2cccc3c2OCCO3)CC1 (stereo not given)
6. Clc1cccc2c1CC2CCCN1CCN(c2cccc3c2OCCO3)CC1 (stereo not given)

1: 8.18; 2: 8.80; 3: 9.23; 4: 9.21; 5: 8.75; 6: 8.43
